Numbers sourced from patent US9776987B2.

system: Glucagon-Like Peptide-1 (GLP-1) secretion; test: Secretion capacity test of glucagon-like peptide-1 (GLP-1); format: in vivo, mouse; conditions: normal mice, oral, AUC of plasma GLP-1 level, vehicle (water) 100%
Form field: GLP-1 secretion (%) at 10 mg/kg of dose (one value per entry).
MEASUREMENT_KIND: GLP-1 secretion (%) at 10 mg/kg of dose

{"COMPOUND": "CCC(F)(CC)CN1CCC(COc2ccc(-c3ccc(C(=O)N4C[C@H](O)C[C@H]4C(N)=O)c(F)c3)nc2)CC1 [Compound 1279]", "TESTED_TARGET": "Glucagon-Like Peptide-1 (GLP-1) secretion", "MEASUREMENT_KIND": "GLP-1 secretion (%) at 10 mg/kg of dose", "TEST_RESULT": 324}
{"COMPOUND": "CCc1cnc(N2CCC(c3nc(COc4ccc(-n5cnnn5)cc4)cs3)CC2)nc1 [MBX-2982, reference compound]", "TESTED_TARGET": "Glucagon-Like Peptide-1 (GLP-1) secretion", "MEASUREMENT_KIND": "GLP-1 secretion (%) at 10 mg/kg of dose", "TEST_RESULT": 114}
{"COMPOUND": "CCC(F)(CC)CN1CCC(COc2ccc(-c3ccc(C(=O)N4C[C@H](O)C[C@@]4(C)C(N)=O)c(F)c3)nc2)CC1 [Compound 1291]", "TESTED_TARGET": "Glucagon-Like Peptide-1 (GLP-1) secretion", "MEASUREMENT_KIND": "GLP-1 secretion (%) at 10 mg/kg of dose", "TEST_RESULT": 347}
{"COMPOUND": "CC(C)(F)CN1CCC(COc2ccc(-c3ccc(C(=O)N4CCC[C@@]4(C)C(N)=O)c(F)c3)nc2)CC1 [Compound 1207]", "TESTED_TARGET": "Glucagon-Like Peptide-1 (GLP-1) secretion", "MEASUREMENT_KIND": "GLP-1 secretion (%) at 10 mg/kg of dose", "TEST_RESULT": 223}

----------
Target: human GPR119 receptor (Homo sapiens, UniProt Q8TDV5)
Sequence (Q8TDV5 whole entry): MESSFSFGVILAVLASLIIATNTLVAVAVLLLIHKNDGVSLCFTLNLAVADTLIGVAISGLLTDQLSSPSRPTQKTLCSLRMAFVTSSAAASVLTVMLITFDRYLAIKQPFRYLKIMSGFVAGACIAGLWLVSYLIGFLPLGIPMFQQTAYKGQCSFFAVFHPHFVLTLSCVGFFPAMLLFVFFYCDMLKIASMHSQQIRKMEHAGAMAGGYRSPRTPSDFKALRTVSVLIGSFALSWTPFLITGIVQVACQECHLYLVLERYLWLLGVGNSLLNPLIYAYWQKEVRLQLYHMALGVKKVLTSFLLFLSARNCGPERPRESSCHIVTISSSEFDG
Test: Activity test for human GPR119 receptor (GeneBLAzer T-Rex GPR 119 CHO-K1 DA cells)
Conditions: human GPR119 receptor expressing CHO-K1 cells, 5 hours treatment; read-out: hGPR119 EC50
Description: 1. Human GPR119 Receptor Cell As a human GPR119 receptor expression cell for this test, the cell line “GeneBLAzer™ T-Rex GPR 119 CHO-K1 DA cells” that is commercially available from Invitrogen, was used. The cell was incubated in the DMEM media containing 1% dialyzed fetal bovine serum etc. […] The human GPR119 receptor expressing cell was used to this test. […] After treatment of color development agent for 2 hours, the fluorescence value was determined with plate reader. […]
pEC50: −log10 of the molar value.

{"MOLECULE": "NC(=O)[C@@H]1C[C@H](F)CN1C(=O)c1ccc(-c2cnc(OCC3CCN(CC4(C(F)(F)F)CCC4)CC3)cn2)cc1 [Compound 1209]", "TESTED_TARGET": "human GPR119 receptor (Homo sapiens, UniProt Q8TDV5)", "pEC50": 10.05}
{"MOLECULE": "CCC(F)(CC)CN1CCC(COc2ccc(-c3ccc(C(=O)N4C[C@H](O)C[C@H]4C(N)=O)cc3F)cc2)CC1 [Compound 1205]", "TESTED_TARGET": "human GPR119 receptor (Homo sapiens, UniProt Q8TDV5)", "pEC50": 8.70}
{"MOLECULE": "CCC(F)(CC)CN1CCC(COc2ccc(-c3ccc(C(=O)N4C[C@@H](F)C[C@H]4C(N)=O)cc3F)cc2)CC1 [Compound 1210]", "TESTED_TARGET": "human GPR119 receptor (Homo sapiens, UniProt Q8TDV5)", "pEC50": 9.70}
{"MOLECULE": "C[C@@]1(C(N)=O)CCCN1C(=O)c1ccc(-c2ccc(OCC3CCN(CC4(C(F)(F)F)CCC4)CC3)cn2)cc1F [Compound 1297]", "TESTED_TARGET": "human GPR119 receptor (Homo sapiens, UniProt Q8TDV5)", "pEC50": 8.40}
{"MOLECULE": "C[C@@]1(C(N)=O)C[C@@H](O)CN1C(=O)c1ccc(-c2ccc(OCC3CCN(CC4(C(F)(F)F)CCC4)CC3)cc2)c(F)c1 [Compound 1258]", "TESTED_TARGET": "human GPR119 receptor (Homo sapiens, UniProt Q8TDV5)", "pEC50": 9.00}
{"MOLECULE": "CC(C)(CN1CCC(COc2ccc(-c3ccc(C(=O)N4C[C@H](O)C[C@H]4C(N)=O)c(F)c3)cn2)CC1)C(F)(F)F [Compound 1208]", "TESTED_TARGET": "human GPR119 receptor (Homo sapiens, UniProt Q8TDV5)", "pEC50": 8.52}
{"MOLECULE": "NC(=O)[C@@H]1C[C@@H](O)CN1C(=O)c1ccc(-c2ccc(OCC3CCN(CC(F)(F)C(F)(F)F)CC3)cc2)cc1F [Compound 1256]", "TESTED_TARGET": "human GPR119 receptor (Homo sapiens, UniProt Q8TDV5)", "pEC50": 9.40}
{"MOLECULE": "NC(=O)C1CC(O)CCN1C(=O)c1ccc(-c2cnc(OCC3CCN(CC4(C(F)(F)F)CCC4)CC3)cn2)cc1F (centres unmarked) [Compound 1262]", "TESTED_TARGET": "human GPR119 receptor (Homo sapiens, UniProt Q8TDV5)", "pEC50": 9.10}
{"MOLECULE": "NC(=O)[C@@H]1C[C@@H](O)CN1C(=O)c1ccc(-c2ccc(OCC3CCN(CC4(C(F)(F)F)CCC4)CC3)cc2)cc1 [Compound 1199]", "TESTED_TARGET": "human GPR119 receptor (Homo sapiens, UniProt Q8TDV5)", "pEC50": 7.92}
{"MOLECULE": "CC(C)(F)CN1CCC(COc2cnc(-c3ccc(C(=O)N4CCC[C@@]4(C)C(N)=O)c(F)c3)nc2)CC1 [Compound 1206]", "TESTED_TARGET": "human GPR119 receptor (Homo sapiens, UniProt Q8TDV5)", "pEC50": 8.05}
{"MOLECULE": "CC(C)(CN1CCC(COc2ccc(-c3ccc(C(=O)N4C[C@H](O)C[C@H]4C(N)=O)c(F)c3)c(F)c2)CC1)C(F)(F)F [Compound 1240]", "TESTED_TARGET": "human GPR119 receptor (Homo sapiens, UniProt Q8TDV5)", "pEC50": 10.00}
{"MOLECULE": "CCC(F)(CC)CN1CCC(COc2ccc(-c3ccc(C(=O)N4C[C@H](O)C[C@H]4C(N)=O)c(F)c3)nc2)CC1 [Compound 1279]", "TESTED_TARGET": "human GPR119 receptor (Homo sapiens, UniProt Q8TDV5)", "pEC50": 7.89}
{"MOLECULE": "NC(=O)[C@@H]1[C@@H](O)CCN1C(=O)c1ccc(-c2ccc(OCC3CCN(CC4(C(F)(F)F)CCC4)CC3)cc2)c(F)c1 [Compound 1220]", "TESTED_TARGET": "human GPR119 receptor (Homo sapiens, UniProt Q8TDV5)", "pEC50": 10.00}
{"MOLECULE": "CC(C)(CN1CCC(COc2ccc(-c3ccc(C(=O)N4C[C@H](O)C[C@@]4(C)C(N)=O)c(F)c3)cn2)CC1)C(F)(F)F [Compound 1295]", "TESTED_TARGET": "human GPR119 receptor (Homo sapiens, UniProt Q8TDV5)", "pEC50": 7.74}
{"MOLECULE": "CC(C)(F)CN1CCC(COc2ccc(-c3ccc(C(=O)N4C[C@H](O)C[C@@]4(C)C(N)=O)c(F)c3)cc2C#N)CC1 [Compound 1276]", "TESTED_TARGET": "human GPR119 receptor (Homo sapiens, UniProt Q8TDV5)", "pEC50": 7.62}
{"MOLECULE": "CC(C)(CN1CCC(COc2ccc(-c3ccc(C(=O)N4C[C@H](O)C[C@H]4C(N)=O)c(F)c3)nc2)CC1)C(F)(F)F [Compound 1268]", "TESTED_TARGET": "human GPR119 receptor (Homo sapiens, UniProt Q8TDV5)", "pEC50": 10.15}
{"MOLECULE": "CCC(F)(CC)CN1CCC(COc2ccc(-c3ccc(C(=O)N4C[C@H](O)C[C@H]4C(N)=O)cc3F)nc2)CC1 [Compound 1287]", "TESTED_TARGET": "human GPR119 receptor (Homo sapiens, UniProt Q8TDV5)", "pEC50": 7.70}
{"MOLECULE": "CC(C)(F)CN1CCC(COc2ccc(-c3ccc(C(=O)N4CCC[C@@]4(C)C(N)=O)c(F)c3)nc2)CC1 [Compound 1207]", "TESTED_TARGET": "human GPR119 receptor (Homo sapiens, UniProt Q8TDV5)", "pEC50": 10.15}
{"MOLECULE": "CCC(F)(F)CN1CCC(COc2ccc(-c3ccc(C(=O)N4CCC[C@H]4C(N)=O)c(F)c3)cn2)CC1 [Compound 1238]", "TESTED_TARGET": "human GPR119 receptor (Homo sapiens, UniProt Q8TDV5)", "pEC50": 9.05}
{"MOLECULE": "CCC(F)(CC)CN1CCC(COc2ccc(-c3ccc(C(=O)N4C[C@@H](F)C[C@H]4C(N)=O)c(F)c3)cc2)CC1 [Compound 1211]", "TESTED_TARGET": "human GPR119 receptor (Homo sapiens, UniProt Q8TDV5)", "pEC50": 10.10}
{"MOLECULE": "NC(=O)[C@@H]1CCCN1C(=O)c1ccc(-c2ccc(OCC3CCN(CC(F)(F)C(F)(F)F)CC3)cn2)cc1F [Compound 1264]", "TESTED_TARGET": "human GPR119 receptor (Homo sapiens, UniProt Q8TDV5)", "pEC50": 10.05}
{"MOLECULE": "CC(C)(F)CN1CCC(COc2ccc(-c3ccc(C(=O)N4CCC[C@@]4(C)C(N)=O)c(F)c3)cc2C#N)CC1 [Compound 1259]", "TESTED_TARGET": "human GPR119 receptor (Homo sapiens, UniProt Q8TDV5)", "pEC50": 8.30}
{"MOLECULE": "NC(=O)[C@@H]1C[C@@H](O)CN1C(=O)c1ccc(-c2cnc(OCC3CCN(CC4(C(F)(F)F)CCC4)CC3)cn2)cc1F [Compound 1200]", "TESTED_TARGET": "human GPR119 receptor (Homo sapiens, UniProt Q8TDV5)", "pEC50": 9.10}
{"MOLECULE": "NC(=O)[C@@H]1C[C@@H](O)CN1C(=O)c1ccc(-c2ccc(OCC3CCN(CC4(C(F)(F)F)CCC4)CC3)cn2)c(F)c1 [Compound 1286]", "TESTED_TARGET": "human GPR119 receptor (Homo sapiens, UniProt Q8TDV5)", "pEC50": 8.52}
{"MOLECULE": "CCC(F)(CC)CN1CCC(COc2ccc(-c3ccc(C(=O)N4C[C@H](O)C[C@@]4(C)C(N)=O)c(F)c3)nc2)CC1 [Compound 1291]", "TESTED_TARGET": "human GPR119 receptor (Homo sapiens, UniProt Q8TDV5)", "pEC50": 7.89}
{"MOLECULE": "C[C@@]1(C(N)=O)C[C@@H](O)CN1C(=O)c1ccc(-c2ccc(OCC3CCN(CC4(C(F)(F)F)CCC4)CC3)cn2)cc1F [Compound 1290]", "TESTED_TARGET": "human GPR119 receptor (Homo sapiens, UniProt Q8TDV5)", "pEC50": 8.22}
